Give pIC50 for every item shown.
- assay overview: Inhibition of NMP-fused ALK (unknown origin) expressed in mouse BA/F3 cells after 48 hrs by luciferase reporter gene assay in absence of recombinant mouse IL3
Field pIC50 (float): negative decimal logarithm of the concentration in molar.

# pIC50 (compound: OC1CCN(c2cc(-c3cnc4ccc(N5CCC[C@@H]5c5cccc(F)c5)nn34)ccn2)CC1 ) is 5.52

Lookup result for O=C(O)CN1CCN(c2cc(-c3cnc4ccc(N5CCC[C@@H]5c5cccc(F)c5)nn34)ccn2)CC1 ; measured pIC50: 5.92

###

- assay overview: Inhibition of Tel-fused IGF1R (unknown origin) expressed in mouse BA/F3 cells after 48 hrs by luciferase reporter gene assay in absence of recombinant mouse IL3
readout label: pIC50
Friendly reminder that pIC50 comes from taking -log10 of the concentration in mol/L.

The recorded pIC50 for O=C(O)CN1CCN(c2cc(-c3cnc4ccc(N5CCC[C@@H]5c5cccc(F)c5)nn34)ccn2)CC1 is 5.29

Sure, the documented pIC50 for N#Cc1ccc(-c2cnc3ccc(NCc4ccccc4)nn23)cc1 is 5.40

###

Would you kindly list IC50 for each of these compounds?
- assay overview: Inhibition of TPM3-fused TRKA (unknown origin) expressed in human KM12 cells assessed as inhibition of cell proliferation after 48 hrs by luciferase reporter gene assay
Write it as a number; the unit nM goes unstated.

Per the records, this compound ( OC1CCN(c2cc(-c3cnc4ccc(N5CCC[C@@H]5c5cccc(F)c5)nn34)ccn2)CC1 ) has IC50 equal to 10

The compound listed as O=C(O)CN1CCN(c2cc(-c3cnc4ccc(N5CCC[C@@H]5c5cccc(F)c5)nn34)ccn2)CC1 shows IC50 equal to 1

###

- assay overview: Inhibition of Tel-fused KIT (unknown origin) expressed in mouse BA/F3 cells after 48 hrs by luciferase reporter gene assay in absence of recombinant mouse IL3
Hi there, I'd appreciate the recorded pIC50 for every entry that follows.
Remember, pIC50 is on a log scale: it is -log10 of the molar concentration.

Lab note: measured pIC50 of O=C(O)CN1CCN(c2cc(-c3cnc4ccc(N5CCC[C@@H]5c5cccc(F)c5)nn34)ccn2)CC1 was 6.10

// pIC50 value for Fc1cccc([C@H]2CCCN2c2ccc3ncc(-c4ccccn4)n3n2)c1 : 5.26

The recorded pIC50 for entry N#Cc1ccc(-c2cnc3ccc(NCc4ccccc4)nn23)cc1 equals 5.66

Briefly, pIC50 measured for OC1CCN(c2cc(-c3cnc4ccc(N5CCC[C@@H]5c5cccc(F)c5)nn34)ccn2)CC1 : 5.15

###

- assay overview: Inhibition of Tel-fused FGFR3 (unknown origin) expressed in mouse BA/F3 cells after 48 hrs by luciferase reporter gene assay in absence of recombinant mouse IL3
readout label: pIC50
Expect pIC50 as a plain number equal to -log10 of the molar concentration.

Please fill in: pIC50 reported for N#Cc1ccc(-c2cnc3ccc(NCc4ccccc4)nn23)cc1 = 5.41

pIC50 in this record for OC1CCN(c2cc(-c3cnc4ccc(N5CCC[C@@H]5c5cccc(F)c5)nn34)ccn2)CC1 : 5.30

###

- assay overview: Inhibition of Tel-fused TIE1 (unknown origin) expressed in mouse BA/F3 cells after 48 hrs by luciferase reporter gene assay in absence of recombinant mouse IL3
readout label: pIC50
Scale explanation: pIC50 corresponds to minus log10 of a concentration expressed in moles per litre.

What the record says about N#Cc1ccc(-c2cnc3ccc(NCc4ccccc4)nn23)cc1 : pIC50 is 5.26

# pIC50 (compound: O=C(O)CN1CCN(c2cc(-c3cnc4ccc(N5CCC[C@@H]5c5cccc(F)c5)nn34)ccn2)CC1 ) is 5.37

Where do the numbers come from? From BindingDB's records for doi:10.1021/acsmedchemlett.5b00050.
